Some sequences, each annotated with its measured PBM binding z-score.
- System: RARb:RXRa (NR concentration 270 nM, RXRa partner concentration 90 nM)
- method summary: PBM binding z-score (relative to random genomic background probes); higher = stronger binding; sequences stand for … in GC…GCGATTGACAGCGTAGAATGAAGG
Just the number.

Example sequences with recorded PBM binding z-score:
{"seq": "AGAATGAGCTTACCAAAGATCAGGGAAACGCTTG", "measured on": "RARb:RXRa (NR concentration 270 nM, RXRa partner concentration 90 nM)", "PBM binding z-score": -0.501}
{"seq": "CCGACAGGGGCAGAAAGGTTACCATACCATCCGG", "measured on": "RARb:RXRa (NR concentration 270 nM, RXRa partner concentration 90 nM)", "PBM binding z-score": 1.95}
{"seq": "TTACCAAGGTGTGCTGAGGTCGTTGATCCAACTC", "measured on": "RARb:RXRa (NR concentration 270 nM, RXRa partner concentration 90 nM)", "PBM binding z-score": 0.629}

Req: Which PBM binding z-score is listed for TCATATAGGCAAATGCTAGGTGAAAGTCCGATCT ?
Resp: 0.0925

Req: Which PBM binding z-score is listed for ACTTACGGGTCAAAGAGGTTATAGCACGCGTATA ?
Resp: 3.99

Req: Which PBM binding z-score is listed for ATCTCTAGGTAAGACTCAGTTCATTGAAGAACGC ?
Resp: 0.694

Req: Which PBM binding z-score is listed for ACAGACAGGTGATGAAGGTAACGCAGGCTATCAT ?
Resp: 0.179

* * *

- Test system: PPARg DBDmut IVT, anti-PPARg (DBD mutation: PPARg1 K132A/R137A, NR concentration 270 nM)
- method summary: PBM binding z-score (relative to random genomic background probes); higher = stronger binding; sequences stand for … in GC…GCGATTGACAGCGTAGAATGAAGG
Some sequences, each annotated with its measured PBM binding z-score.
Just the number.

Example sequences with recorded PBM binding z-score:
{"seq": "CATACAGGGTCAGCTAGGCCGGAGTAGGGACGGC", "quantitative result": 0.204}
{"seq": "TATGCTAGGTCAGTTGGTCAGCTAACGAGCTGCC", "quantitative result": 0.759}
{"seq": "GGAACAAGGGCAAAGTTGATAGCATCTGTCGACG", "quantitative result": -0.078}
{"seq": "ATCTCTAGGTGACCAAGTTCAGTGAATGCCGAAC", "quantitative result": 1.14}
{"seq": "TCTATTAGTTGATTCGGGCAACCGAAACAGCGGA", "quantitative result": 0.979}
{"seq": "AGAATGAGGATACCAAAGATCAGGGAAACGCTTG", "quantitative result": -0.145}

Req: Which PBM binding z-score is listed for ATATGTAGGTTATCGGATCATTCAGTTTGCGCAT ?
Resp: 2.07

Req: Which PBM binding z-score is listed for ACAGACAGGTGATGAAGGTAACCCAGGCTATCAT ?
Resp: 0.0514

* * *

- System: RXRa DBDmut IVT, anti-RXR (DBD mutation: RXRa K156A/R161A, NR concentration 90 nM)
- method summary: PBM binding z-score (relative to random genomic background probes); higher = stronger binding; sequences stand for … in GC…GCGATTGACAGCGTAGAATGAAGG
# PBM binding z-score >= 0.3 gives Satisfied, anything below gives Not satisfied

Some solved entries appear below for comparison.
{"seq": "CTACCAGGGTGAACAAGGTCGTTGATTACTATTC", "qualitative label": "Satisfied"}
{"seq": "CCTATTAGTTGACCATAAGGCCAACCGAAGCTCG", "qualitative label": "Satisfied"}
{"seq": "CCGACTGGGGCAAGGTTTCCATAACGCACAGCCA", "qualitative label": "Not satisfied"}
{"seq": "CCTACTGGGACATTCAGAGGTCATTGATCATATG", "qualitative label": "Satisfied"}
{"seq": "ATCGAAAGGTCGAGGTGAGTATAGAGAAAGGGAA", "qualitative label": "Satisfied"}

Alright, here's another sequence for you.
Req: Does PBM binding z-score meet or surpass 0.3 for CTACCAAGGGGAACAAGGTCGTTGATTACTATTC ?
Resp: Satisfied

* * *

- Test system: LXRa:RXRa (NR concentration 270 nM, RXRa partner concentration 90 nM)
- method summary: PBM binding z-score (relative to random genomic background probes); higher = stronger binding; sequences stand for … in GC…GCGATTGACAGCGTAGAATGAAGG
# PBM binding z-score >= 1 gives 1, anything below gives -1

Some solved entries appear below for comparison.
{"seq": "GCTTACGGGACAAAGGTTATAGCATGAATAGAAT", "measured on": "LXRa:RXRa (NR concentration 270 nM, RXRa partner concentration 90 nM)", "qualitative label": 1}
{"seq": "TCTTGTAGATCAACAGGAGGTTAAGAGAGATCGA", "measured on": "LXRa:RXRa (NR concentration 270 nM, RXRa partner concentration 90 nM)", "qualitative label": 1}
{"seq": "ACTATTAGTTGACTTAGGGCAAACGATACGACGC", "measured on": "LXRa:RXRa (NR concentration 270 nM, RXRa partner concentration 90 nM)", "qualitative label": -1}
{"seq": "ATCTCTAGCTAAGACTCAGTTCAGTGAAGAACGC", "measured on": "LXRa:RXRa (NR concentration 270 nM, RXRa partner concentration 90 nM)", "qualitative label": -1}
{"seq": "CTCGAAAGGTCGGTTGAGGTGAATATACGGATAA", "measured on": "LXRa:RXRa (NR concentration 270 nM, RXRa partner concentration 90 nM)", "qualitative label": 1}
{"seq": "TCTGCTAGGTCAACGATGGTCAGCTATTCTGCTA", "measured on": "LXRa:RXRa (NR concentration 270 nM, RXRa partner concentration 90 nM)", "qualitative label": 1}

Req: Does PBM binding z-score meet or surpass 1 for CGTCCAAGGTCAGAGAGGTCAGTAAATGCCGAGT ?
Resp: 1

Req: Does PBM binding z-score meet or surpass 1 for TAGCCGAGGTCATTGGGCCAGTATAGTACGCATC ?
Resp: 1

Req: Does PBM binding z-score meet or surpass 1 for TCTAGTTGGTCAAATGTCACACACTCGAAATGCG ?
Resp: -1

* * *

- System: PPARg homodimer (NR concentration 180 nM)
- method summary: PBM binding z-score (relative to random genomic background probes); higher = stronger binding; sequences stand for … in GC…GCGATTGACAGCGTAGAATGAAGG
quantity kind: PBM binding z-score
Just the number.

{"seq": "TATACAGGGTCAGAGGCCAGAGTACGAATGTCGA", "quantitative result": 2.24}

Req: Which PBM binding z-score is listed for CCTACTGGGCCATCAGGTCCTTGATATCAACGTT ?
Resp: 0.311

Req: Which PBM binding z-score is listed for ATCTCTAGGTAACAAGTTCAGTCAAAGAGAGGAC ?
Resp: 1.63

Req: Which PBM binding z-score is listed for ATCTCTAGGTAAAGTTCAGTGCAAGATCGATAGA ?
Resp: 2.51

Req: Which PBM binding z-score is listed for CTCGAAAGGTCCTGCTCAGGTGAGTATACCAAAC ?
Resp: -0.47

Req: Which PBM binding z-score is listed for CGTCCAGGGTCAATGCTAGGTCAGTGAAAGCATT ?
Resp: 3.59

Req: Which PBM binding z-score is listed for TCATATCGGTAATACAGGTGAAAGTCGGCATCTA ?
Resp: 1.2

Req: Which PBM binding z-score is listed for CCAGGCAGGTGAAAGGTAACTCAGTCTGGTACGC ?
Resp: 1.59

Req: Which PBM binding z-score is listed for GCGAGTGGGGCAAAGCAGGTTACCATAAGGTTGG ?
Resp: 0.436

* * *

- Tested on: PXR:RXRa (NR concentration 270 nM, RXRa partner concentration 90 nM)
- method summary: PBM binding z-score (relative to random genomic background probes); higher = stronger binding; sequences stand for … in GC…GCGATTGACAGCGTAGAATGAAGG
quantity kind: PBM binding z-score
Just the number.

{"seq": "CCTACTGGTCCATTCAGAGGTCATTGATCATATG", "measured on": "PXR:RXRa (NR concentration 270 nM, RXRa partner concentration 90 nM)", "quantity kind": "PBM binding z-score", "quantitative result": 4.52}
{"seq": "TCTATTAGCTGATTAGGGCAACCGAAACAGCGGA", "measured on": "PXR:RXRa (NR concentration 270 nM, RXRa partner concentration 90 nM)", "quantity kind": "PBM binding z-score", "quantitative result": -0.0443}
{"seq": "AAAGACAGGTGAGTGAAGGTAACTCAGCTGGACG", "measured on": "PXR:RXRa (NR concentration 270 nM, RXRa partner concentration 90 nM)", "quantity kind": "PBM binding z-score", "quantitative result": -0.0597}
{"seq": "GCTGCTAGGTCATCTGATGGTCAGCTAAAGCTCG", "measured on": "PXR:RXRa (NR concentration 270 nM, RXRa partner concentration 90 nM)", "quantity kind": "PBM binding z-score", "quantitative result": 1.71}
{"seq": "ATCTCAAGGTAAAGATAGTTCAGTGAATGCAAAT", "measured on": "PXR:RXRa (NR concentration 270 nM, RXRa partner concentration 90 nM)", "quantity kind": "PBM binding z-score", "quantitative result": 2}
{"seq": "CTTACTGGGCCATCAGGTCATTGATATCAACGTT", "measured on": "PXR:RXRa (NR concentration 270 nM, RXRa partner concentration 90 nM)", "quantity kind": "PBM binding z-score", "quantitative result": 1.94}
{"seq": "CCAACTGGGCCATTCAGAGGTCATTGATCATATG", "measured on": "PXR:RXRa (NR concentration 270 nM, RXRa partner concentration 90 nM)", "quantity kind": "PBM binding z-score", "quantitative result": 5.05}
{"seq": "ACTAGTTGGTCAGCTGAGGTCACACGCAATTCGG", "measured on": "PXR:RXRa (NR concentration 270 nM, RXRa partner concentration 90 nM)", "quantity kind": "PBM binding z-score", "quantitative result": 5.51}

Req: Which PBM binding z-score is listed for ATCTCTAGGTTAGACTCAGTTCAGTGAAGAACGC ?
Resp: 2.69

Req: Which PBM binding z-score is listed for CCTTACGGGCCACTGACAGGTTATAGCATTTGGA ?
Resp: -0.136

Req: Which PBM binding z-score is listed for CCTAGTTAGTCAAGGTCACACACGCTATAGGTAC ?
Resp: 4.25

Req: Which PBM binding z-score is listed for AGTCAAAGTTCATCTAGGTAAAGTAAGATATGCT ?
Resp: 5.45

Where do the numbers come from? From the supplement of paper PMC6555819.
